tested system: HePTP (Homo sapiens, UniProt P35236)
Sequence (P35236 whole entry): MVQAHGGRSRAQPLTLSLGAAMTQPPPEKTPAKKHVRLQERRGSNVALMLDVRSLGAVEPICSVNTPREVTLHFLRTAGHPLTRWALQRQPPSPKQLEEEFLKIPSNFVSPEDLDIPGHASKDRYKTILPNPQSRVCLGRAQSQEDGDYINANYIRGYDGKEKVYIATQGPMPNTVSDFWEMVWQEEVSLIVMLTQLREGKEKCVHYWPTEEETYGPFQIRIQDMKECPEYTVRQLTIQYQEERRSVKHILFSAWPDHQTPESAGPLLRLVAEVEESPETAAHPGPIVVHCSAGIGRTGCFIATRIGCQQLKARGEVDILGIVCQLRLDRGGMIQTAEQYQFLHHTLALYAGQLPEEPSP
procedure summary: HePTP dose-response confirmation screening
Type: biochemical
settings: Hill coefficient of the dose-response curve
// label = Y if n / nH (Hill coefficient) is not less than 2, otherwise N

Prompt: Could you tell me if the measured n / nH (Hill coefficient) of COc1cccc2c1NC(C(=O)O)C1CC=CC21 (stereo not shown) reaches 2 or more?
Response: N

Prompt: Also check CCOC(=O)c1ccc2c(c1)C1C=CCC1C(C(=O)O)N2 (stereo not shown)
Response: Y

Prompt: Also check CC1(C)CCCN(C(=O)c2coc(=O)c(Br)c2)C1
Response: Y

Prompt: Also check O=C1CCCC2=C1C(c1ccco1)Nc1ccc3ccccc3c12 (stereo not shown)
Response: Y

Prompt: Also check O=C(CCS(=O)(=O)c1ccc(Br)cc1)NCc1cccs1
Response: N

Prompt: Also check Cn1cnnc1SCC(=O)Nc1sc2c(c1C(=O)ON)CCC2
Response: Y

Prompt: Also check CCCCC[C@H](O)/C=C/[C@H]1C=CC(=O)[C@@H]1C/C=C\CCCC(=O)O
Response: Y

Prompt: Also check CC(C)CN(C(=O)COC(=O)c1cc2c(s1)CCC2)C1CCS(=O)(=O)C1 (stereo not shown)
Response: N

Prompt: Also check NC(=O)c1c(NC(=O)CSc2nnc(-c3ccco3)n2-c2ccccc2)sc2c1CCC2
Response: Y

Prompt: Also check COc1ccc(C(=O)c2no[n+]([O-])c2C(=O)c2ccc(OC)cc2)cc1
Response: N

Prompt: Also check COC(=O)c1ccccc1NC(=O)c1noc2ccccc12
Response: N

Prompt: Also check Cn1nnnc1SCC1=C(C(=O)[O-])N2C(=O)[C@H](NC(=O)[C@H](O)c3ccccc3)[C@H]2SC1.[Na+]
Response: N

Prompt: Also check Cc1cc(C)n(-c2nc(Nc3ccccc3)nc(-n3nc(C)cc3C)n2)n1
Response: Y

Prompt: Also check O=C(COC(=O)c1cccc(S(=O)(=O)N2CCN(c3ccccc3)CC2)c1)NCc1ccco1
Response: Y

Prompt: Also check CN(C)c1ccc(-c2nn3c(-c4ccc(Cl)cc4Cl)nnc3s2)cc1
Response: Y

Prompt: Also check O=C(Oc1ccccc1)c1ccc2c(c1)C1C=CCC1C(C(=O)O)N2 (stereo not shown)
Response: Y

Prompt: Also check COc1ccc(Cn2c(C)nc3c(c2=O)c2nc4ccccc4nc2n3Cc2ccco2)cc1
Response: Y

Prompt: Also check Cc1ccc(-c2nn3c(C)nnc3s2)cc1NC(=O)c1ccc(-c2ccc(Cl)cc2Cl)o1
Response: N

Prompt: Also check N#Cc1c(N2CCCC2)nc(N)c2c(N)nc(N3CCCC3)cc12
Response: N

Prompt: Also check Cc1cc(NC(=O)Cc2cccs2)no1
Response: Y

Prompt: Also check O=C(O)CCC(=O)N1CCc2cc(S(=O)(=O)N3CCN(c4ccc(F)cc4)CC3)ccc21
Response: Y
